- tgt: T1, mouse big-ET-1 (mouse)
- T1 construct: also called mBig-ET-1
- T1 peptide: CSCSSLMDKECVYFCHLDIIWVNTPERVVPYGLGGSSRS
- assay-summary: SPR (Biacore T200), 37 C, mAb capture, peptide analyte
The following binders are listed with their measured koff values.
Value expressed in s⁻¹; do not type the unit.

binder	unit-annotation	recorded-result
H4H6329P (antibody, V domains shown, Human IgG4 Fc (prefix H4H)) VH: QVQLVESGGGVVQPGRSLRLSCAASGFTFGSYGMHWVRQAPGKGLEWVAVIWYDGSDEYYTDSVKGRFTVSRDNSKYTLYLQMNSLRADDTAVYYCARDGYRTRGNYFDYWGQGTLVTVSS VL: DVVMTQSPLSLPVALGQPASISCRSSQSLVYSDGNTYLNWFQQRPGQSPRRLIYKVSNRDSGVPDRFGGSGSGTDFTLKISRVEAEDVGLYYCMQGTHWPPTFGGGTKVEIK	s⁻¹	0.000223

Shifting focus to the binder that follows.
Prompt: Fill in reported koff for this entry: H4H6345P (antibody, V domains shown, Human IgG4 Fc (prefix H4H)) VH: EVQLVESGGGLVQPGGSLRLSCAASGFIFSSYAMTWVRQAPGKGLEWVSAISGSGVSTYYADSVKGRFTISRDNSKNTLYLQMNSLRIEDTAVYYCGKARTGTHAFDIWGQGTMVTVSS VL: DIQMTQSPSTLSASVGDRVTITCRASQSISRWLAWYQQKPGKAPKLLIYKASSLETGVPSRFSGSGSGTEFTLTISSLQPDDFGTYYCQQYNSYSSFGPGTKVDIK
Completion: 0.0974
